These entries and their values trace back to the nanobody polyreactivity screen of Harvey et al. (2022).

assay: yeast display, Sf9 membrane polyspecificity reagent, FACS + sequencing; frameworks hold sequencing errors
measure: polyreactivity (PSR sort gate)

Illustrative cases are given below, each with its answer.
ordered-residues: QVQLVESGGGLFQAGGSLRLSCAASGSIFGDYAMGWYRQAPGKERELVAAITSSGGITYYADSVKGRFTISRDNAKNTVYLQMNSLKPEDTAVYYCAAYGYGSNYRYTCYYYWGQGTQVTVSS
measure: polyreactivity (PSR sort gate)
reported-measurement: low polyreactivity

ordered-residues: QVQLVESGGGLVQAGGSLRLSCDASGRIFAYYTMGWNRQAPGKERELVAAINQSGGSTYYADSVKGRITISRDNAKNTDYLQMNILKPEDTAVYYCAAKRYSMYARRYAYVYWGQVTQVTVSS
measure: polyreactivity (PSR sort gate)
reported-measurement: low polyreactivity

ordered-residues: QVQLVESGGGLVQAGGSLRLSCAASGSIFITYDMGWYRQAPGKERELVAAISSVGRTTYADSVKGRFTISRDNAKNTVYLQMNSLKTEDTAVYYCAVVGRSSHNVRTYGYWGQGTQVTVTS
measure: polyreactivity (PSR sort gate)
reported-measurement: low polyreactivity

ordered-residues: QVQLVESGGGLVQAGGSLRLSCAASGSTVGHYAMGWYRQAPGKERELVAAISVSGGSTYYADSVKGRFTISRDHAKNTVYLQMNSLKPEDTAVYYCAREYAHLSFLSTSSDYWGQGTQVTVSS
measure: polyreactivity (PSR sort gate)
reported-measurement: low polyreactivity

ordered-residues: QVQLVESGGGLVQAGGSLRLSSAASGSIFYDYAMGWYRQAPGKERELVAAITNDDSSTYYADSVKGRFTISRDNAKNTVYLQMNSLKPEDTAVYYCRFKYAVAHHFWVYRYDYWGQGTQVTVSS
measure: polyreactivity (PSR sort gate)
reported-measurement: low polyreactivity

Recorded polyreactivity (PSR sort gate) (sequence QVQLVESGGGLVQAGGSLRLSCAASGRTFTYNTMGWYRQAPGKERELVAAISSRGGRTYYADSVKGRFTISRDNAKNTVYLQMHSLKAEDTAVYYCAVYGYYSLSHWDYDYWAQGTQVTVSS ): high polyreactivity

Form: sequence = QVQLVESGGGLVQAGGSLRLSCAASGRTFIRYAMGWYRQAPGNERELVAAISWSGDRTYYADSVKGRFTISRDNAKNTVYLQMNSLKPEDTAVYYCNAYRYLRTATFLKFDYWGQGTQVTVSS ; polyreactivity (PSR sort gate) = high polyreactivity

In plain terms, QVQLVESGGGLVQAGGSLRLSCAASGRIFPISAMGWYRQAPGKERVLVAAIDSGGSTTYADSVKGRFTISRDNEKNTVYLQMNSLKPEDSADYYCAAKGAYPYWYPVGYRYDYWGQGTQVTVSS has a documented polyreactivity (PSR sort gate) of low polyreactivity

* * *

assay: yeast display, Sf9 membrane polyspecificity reagent, FACS + sequencing; frameworks hold sequencing errors
measure: polyreactivity (PSR sort gate)

ordered-residues: QVQLVESGGGIYKAGGSLRLSCAASGSIIKINTLGRYRQAPRKERELVAAISTRGGSTYYADSVKGRFTISRDNSKNTVYLQMNSLKPDDTAVYFCAARQFYKYYYWGQGTQVTVSS
polyreactivity (PSR sort gate): high polyreactivity
--
ordered-residues: QVQLVESVGGLVQAGGSLRLRCSASGSIFKYNAMGWYRQAPGKVRELVADITRSGGRTYYADSVKGRFTISRDNEKNTVYVQMNSLKTEDTAVYYCYAVTPTTLGDYWGQGTQVTVSS
polyreactivity (PSR sort gate): high polyreactivity
--
ordered-residues: QVQLVESGGGLVQAGGSLRLSCAASGRTFCVNAMGWSRQAPGKERELVAAITGGGSTYYADSVKGRFTISRDNAKNTVYLQMNSLKPEDTAVYYCNADRRRRSGGFAGWHFQRNDYWGQGTQVTVSS
polyreactivity (PSR sort gate): low polyreactivity
--
ordered-residues: QVQHVESGGGLVQAGGSLRLSCAASGSTSDTNVMGWYRQDPGKERELVAAISYDDDRTYYADSVKGRFTISSDNAKNTVYLQMNSLKPEDTAVYYCATADDYPGDDYLEGGYWGQGTQVTVSS
polyreactivity (PSR sort gate): low polyreactivity

Then this sequence:
Quick note, polyreactivity (PSR sort gate) for QVQHVESGGGLVQAGGSLRLSCAASGRTFVYYVMGWYRQAPGKESELVAAITGSGDSTYYADSVKGRFTISRDNAKNNVYLQMNSLKPEDTAVYYCAARRGTRYYDFGYYYWGQGTKVTVSS landed at high polyreactivity
